- System: guinea pig left ventricle
- PROTOCOL DETAILS: Refractory time of electrically stimulated guinea pig left ventricles (organ bath)
- MEASUREMENT SETUP: 4.0 × 10^-6 g/ml in the bath
# average prolongation of the refractory time values compiled below
QUANTITY KIND: average prolongation of the refractory time

[[record]]
molecule = "COc1ccc2c(c1)-c1c(ccc(OC)c1OC)CC(Cc1ccccc1)N(C)CC2 (racemic) [Example 5]"
measurement_target = "guinea pig left ventricle"
recorded_value = "25 ms"

[[record]]
molecule = "COc1ccc2c(c1)-c1c(ccc(OC)c1OC(C)=O)CC(Cc1ccccc1)N(C)CC2 (single isomer, unassigned; (-)) [Example 8]"
measurement_target = "guinea pig left ventricle"
recorded_value = "21 ms"

[[record]]
molecule = "COc1cccc(CC2Cc3ccc(OC)c(OC(C)=O)c3-c3cc(OC)ccc3CCN2C)c1 (single isomer, unassigned; (-)) [Example 7]"
measurement_target = "guinea pig left ventricle"
recorded_value = "18 ms"

[[record]]
molecule = "COc1ccc2c(c1)-c1c(ccc(OC)c1O)CC(CCc1ccccc1)N(C)CC2 (single isomer, unassigned; (+)) [Example 10]"
measurement_target = "guinea pig left ventricle"
recorded_value = "44 ms"

